- Tested on: U251 CNS
- experiment: NCI-60 one-dose screen, 48 h (100 = growth as untreated, 0 = no growth, -100 = all killed)
- particulars: 10 µM unless noted
The panel holds about 83,000 compounds, 20% with a hit somewhere; the sample as a whole holds those more often. The source made the active and inactive calls. Rule for the calls: active = growth percent below 10; inactive = the rest.
Each item that follows carries a reported growth.

Reference set (5 entries):
CO[C@H]1C[C@@H]2CC[C@@H](C)[C@@](O)(O2)C(=O)C(=O)N2CCCC[C@H]2C(=O)O[C@H]([C@H](C)C[C@@H]2CC[C@@H](OC(=O)C(C)(CO)CO)[C@H](OC)C2)CC(=O)[C@H](C)/C=C(\C)[C@@H](O)[C@@H](OC)C(=O)[C@H](C)C[C@H](C)\C=C/C=C/C=C/1C; 19.4% (inactive)
O=C(N/N=C/c1ccc(Cl)cc1)c1cc(-c2cc3ccccc3o2)nn1-c1ccccc1; 96% (inactive)
Cc1oc2c(C(=O)N/N=C\c3ccc(O)cc3O)c[nH]c2c1C; 20.2% (inactive)
NS(=O)(=O)c1ccc(CCN2C(=O)/C(=C\c3ccc(Cl)cc3)C=C2c2ccc3ccccc3c2)cc1; 85.5% (inactive)
O=C(O)c1ccc2c(c1)nc(Nc1cccc(Cl)c1)c1ccncc12; -24.6% (active)

Query: Please supply the value of reported growth for the item COc1ccc(/C(C)=C(\c2ccc(Cl)cc2)c2ccc(OCCN3CCCCCC3)cc2)cc1
Reply: 42.3% (inactive)

Query: Look up and state reported growth for CC(N)C(Cc1ccc(Cl)cc1)c1ccc(Cl)cc1 (stereo not drawn)
Reply: 5.91% (active)

Query: Tell me measured growth for CCN(CCCOc1ccc2c(Nc3cc(CC(=O)Nc4cccc(F)c4)[nH]n3)ncnc2c1)CCOP(=O)(O)O please.
Reply: 71.8% (inactive)

====

- System: OVCAR-8 ovarian
- experiment: NCI-60 one-dose screen, 48 h
- particulars: 10 µM unless noted
Compounds without any hit were thinned out: in the full panel of roughly 83,000, 20% have a hit. Active and inactive are the calls of the source. The calls were made as follows: active = growth percent below 10; inactive = the rest.
Pick from y (active), n (inactive) when you respond.

The following compounds have reported results that may help.
COc1cc2cc(NCc3ccc(F)cc3)nc(C)c2cc1OC; n
CCCCCCCC(=O)SCC/C=C/[C@@H]1CC(=O)NCc2cccc(n2)C2=N[C@@](C)(CS2)C(=O)N[C@@H](C(C)C)C(=O)N1; n
COc1cc2c(Oc3ccc(NC(=O)C4(C(=O)Nc5ccc(F)cc5)CC4)cc3F)ccnc2cc1OCCCN1CCOCC1; n
O=[N+]([O-])c1cc(Br)cc2c1[nH]c1ccc(Br)cc12; n
CCOc1cc2ncc(C#N)c(Nc3ccc(F)c(Cl)c3)c2cc1NC(=O)/C=C/CN(C)C; y

Query: Called result for CCOc1cccc(/C=N/NC(=O)c2ccccc2Nc2ccnc(C(F)(F)F)c2)c1O
Reply: n

Query: Recorded test outcome, item O=C(NOCCO)c1ccc2cncn2c1Nc1ccc(I)cc1F
Reply: n

Query: Tell me the recorded outcome of this test for Nc1nc(N)c2nc(-c3cccc(O)c3)c(-c3cccc(O)c3)nc2n1 .
Reply: n

Query: Give the logged outcome of this assay for the following compound: O=C(Nc1cnn2ccc(N3CCC[C@@H]3c3cc(F)ccc3F)nc12)N1CC[C@H](O)C1
Reply: n

====

- System: 786-0 renal
- experiment: NCI-60 one-dose screen, 48 h
- particulars: 10 µM unless noted
Compounds without any hit were thinned out: in the full panel of roughly 83,000, 20% have a hit. Activity calls are given as the source filed them. The calls were made as follows: active = growth percent below 10; inactive = the rest.
Lab note: assign the record to one of active, inactive

CC(C)n1c(NCCc2ccc(O)c(O)c2)nc2c1c(=O)n(C)c(=O)n2C; inactive
COCc1c(-c2ccc(NC(=O)Nc3cc(C(F)(F)F)ccc3F)c(F)c2)c2c(N)ncnn2c1CN1CCOCC1; active

Query: Assay result, entry COc1ccc(CCCc2c3[n+](cc4c(OC)c(OC)ccc24)CCc2cc4c(cc2-3)OCO4)cc1 — outcome?
Reply: inactive

Query: Tell me the assay call for Cc1nc(N)sc1-c1ccnc(Nc2ccc(N3CCOCC3)cc2)n1 please.
Reply: inactive

Query: Could you please tell me the result logged for C[N+](C)(CCOC(c1ccccc1)c1ccccc1)CC(=O)OCc1ccccc1 in this assay?
Reply: inactive

====

- System: NCI-H522 lung
- experiment: NCI-60 one-dose screen, 48 h (100 = growth as untreated, 0 = no growth, -100 = all killed)
- particulars: 10 µM unless noted
The panel holds about 83,000 compounds, 20% with a hit somewhere; the sample as a whole holds those more often.
assay_endpoint: growth (%)
Enter your answer as a number in %; do not include the unit.

// solved cases for growth follow
COC(=O)[C@]12CC[C@@H](C)[C@H](C)[C@@H]1C1=CC[C@@H]3[C@@]4(C)C(C#N)=CC(C)=C4CC[C@@]3(C)[C@]1(C)CC2; 78.1
Cc1cccc(Cl)c1NC(=O)c1cnc(Nc2cc(N3CCOCC3)cc(S(C)(=O)=O)c2)s1; 7.33
Cc1sc2c(c1C)c(=O)nc1c(-c3nc(-c4ccccc4)cs3)n[nH]n12; 94.3
Cc1ccc(-c2nc3ccc(Cl)cn3c2NC2CCCCC2)o1; 57.3
Cc1nc(Nc2n[nH]c3c2CN(C(=O)N[C@H](CN(C)C)c2ccccc2)C3(C)C)c2sccc2n1; -45
COC[C@@H](C)n1c(C2CCOCC2)nc2c1C1C=C(OC)C(c3c(C)noc3C)=CC1N=C2 (some centres undefined); -1.23
CCc1nc(C(N)=O)c(Nc2ccc(N3CCC(N4CCN(C)CC4)CC3)c(OC)c2)nc1NC1CCOCC1; 1.52
CCN(CC)c1cc2oc3cc(N)cc(=N)c-3nc2cc1C; 43.4

Query: Note growth for the compound shown: N#CC[C@H](C1CCCC1)n1cc(-c2ncnc3[nH]ccc23)cn1
Reply: 37.9

====

- Tested on: CAKI-1 renal
- experiment: NCI-60 one-dose screen, 48 h (100 = growth as untreated, 0 = no growth, -100 = all killed)
- particulars: 10 µM unless noted
Compounds without any hit were thinned out: in the full panel of roughly 83,000, 20% have a hit.
Measured growth, listed per entry for reference.
Field: numeric (%). Do not append units.

C=CC(=O)N1CCC[C@H](n2c(=O)n(-c3ccc(Oc4ccccc4)cc3)c3c(N)ncnc32)C1; 69.1
CN1CCN(c2nc(C3=C(c4c[nH]c5ccccc45)C(=O)NC3=O)c3ccccc3n2)CC1; 54.9
CC(C)CC(=O)Nc1n[nH]c2c1CN(C(=O)C1CCN(C)CC1)C2(C)C; 39.8
CN1CCN(CCOc2cc(OC3CCOCC3)c3c(Nc4c(Cl)ccc5c4OCO5)ncnc3c2)CC1; 21.7
S=C(NCc1ccc2c(c1)OCO2)N1CCN(c2ncnc3c2oc2ccccc23)CC1; 28
O=C(Nc1cccc(Cl)c1)Nc1ncc(CCNc2ncnc3ccsc23)s1; 21.7

Query: State its growth for this compound: CC(C)NC[C@@H](C(=O)N1CCN(c2ncnc3c2[C@H](C)C[C@H]3O)CC1)c1ccc(Cl)cc1
Reply: 45.1

Query: Give the reported growth for this compound. COC(=O)[C@H](C)NC(=O)[C@@H](OC)[C@@H]1Cc2cc3cc(OC4CC(OC5CC(O)C(O)C(C)O5)C(O)C(C)O4)c(C)c(O)c3c(O)c2C(=O)[C@H]1OC1CC(OC2CC(OC3CC(C)(O)C(O)C(C)O3)C(O)C(C)O2)C(O)C(C)O1 (stereo partly drawn)
Reply: 27.5

====

- Tested on: OVCAR-8 ovarian
- experiment: NCI-60 one-dose screen, 48 h (100 = growth as untreated, 0 = no growth, -100 = all killed)
- particulars: 10 µM unless noted
Compounds without any hit were thinned out: in the full panel of roughly 83,000, 20% have a hit.
A collection of compounds and their measured growth
Use % as the unit, but write only the number.

// below: answered compounds
CC(CCCC(=O)O)c1ccoc1 (centres undefined); 109
CO[C@@H](C(=O)N1Cc2[nH]nc(NC(=O)c3ccc(N4CCN(C)CC4)cc3)c2C1)c1ccccc1; 5.58
COc1cnc2c(c1)C(=O)c1c-2n(CCCN2CCC(N)CC2)c(=O)c2cc([N+](=O)[O-])ccc12; 42.4
CCOC(=O)C1=C(C)N=C2Sc3cccc(OC)c3N2[C@H]1c1ccccn1; 97
CC[n+]1c(/C=C/C=C2\N(C)c3ccccc3C2(C)C)sc2ccccc21; 12.8
COc1cc(-c2nc(C(=O)Nc3ccc(C)cc3)nn2-c2ccc(F)c(F)c2)cc(OC)c1OC; 103

Query: State growth on OVCAR-8 ovarian. Entry: C=CC(=O)N(C)[C@H]1C[C@H]2OC(C)(C1OC)n1c3ccccc3c3c4c(c5c6ccccc6n2c5c31)C(=O)NC4 (some centres undefined)
Reply: 3.41

Query: Find growth for COC(=O)[C@@H](C)CNS(=O)(=O)N(c1cc(C(F)(F)F)cc(C(F)(F)F)c1)C1CCN(Cc2ccc(F)cc2)CC1 on OVCAR-8 ovarian and write it down.
Reply: 67.3

Query: Answer briefly: growth recorded on OVCAR-8 ovarian for O=C1C=CC2(NN=C(c3ccccc3)N2c2cccc(Cl)c2)c2cccc(O)c21 (centres undefined)
Reply: 63.1
